System: SN12C renal
Assay text: NCI-60 one-dose screen, 48 h
Condition: 10 µM unless noted
About 83,000 compounds went through this panel and 20% of them were active in at least one assay; those are over-represented in the sample as a whole. Activity calls are given as the source filed them. Rule for the calls: active = growth percent below 10; inactive = the rest.
Log the outcome using a class from True (active), False (inactive)

[[record]]
compound = "C[C@H]1[C@H](C)CC[C@]2(COC(=O)CCC(=O)O)CC[C@]3(C)C(=CC[C@@H]4[C@@]5(C)CCCNC(C)(C)[C@@H]5CC[C@]43C)[C@H]12"
category_label = "False"


(Q) What classification did C=C(CC(=O)OC)C(C)=O end up with in this test?
(A) False

(Q) What classification did COc1ccc(C2CC(c3ccc4ccccc4c3)=NN2c2nc(O)c(C3=c4cc(OC)ccc4=NC3=O)s2)cc1 (stereo not drawn) end up with in this test?
(A) True

(Q) What classification did Cc1ncc(C(=O)Nc2ccc(CN3CCN(C)CC3)c(C(F)(F)F)c2)cc1C#Cc1c(N)ncc2ccc(C#N)cc12 end up with in this test?
(A) False

(Q) What classification did CCC(C)[C@H](NC(=O)NC(=O)NC(=O)CI)C(=O)OC (stereo partly drawn) end up with in this test?
(A) False

Data origin, for the record: PubChem BioAssay (NCI)
